- ASSAY_INFO: Stability of the compound in DMEM media with 15% fetal bovine serum assessed as measuring half life for intact compound in absence of aminoguanidine
- Type: ADME, cell-free
- RECORDED_CONDITIONS: cattle
MEASURED_PARAMETER: half-life (h)
Give bare numbers, in h.

Could you tell me which half-life is on file for `COC1=C(OC)C(=O)C(C(C)(C)CC(=O)NCCCNCCCCNCCCN)=C(C)C1=O.Cl.Cl.Cl` ?
72

---

- ASSAY_INFO: Stability of the compound in DMEM media with 15% fetal bovine serum assessed as parent compound remaining in presence of NAC and aminoguanidine measured after 24 hrs by HPLC analysis
- Format: ADME, cell-free
- RECORDED_CONDITIONS: cattle, read-out: Stability
MEASURED_PARAMETER: remaining at 24 h (%)
Numbers only, in %.

Could you tell me which remaining at 24 h is on file for `COC1=C(OC)C(=O)C(C(C)(C)CC(=O)NCCCNCCCCNCCCN)=C(C)C1=O.Cl.Cl.Cl` ?
85
